System: NCI/ADR-RES ovarian
Assay: NCI-60 one-dose screen, 48 h
Conditions: 10 µM unless noted
Method: Growth inhibition of the NCI/ADR-RES human […] tumor cell line is measured as a screen for anti-cancer activity. Cells are grown in 96 well plates and exposed to the test compound for 48 hours. Compounds are tested at a single concentration, which is 10^-5 M for most compounds. The reported endpoint is percent growth (GI% or GIPRCNT), where numbers from 0 - 100% represent growth inhibition, and numbers from -100% - 0 represent cell death. For example, a value of 40 represents 60% growth inhibition. […]
Compounds without any hit were thinned out: in the full panel of roughly 83,000, 20% have a hit. Active and inactive are the calls of the source. The calls were made as follows: active = growth percent below 10; inactive = the rest.
Outcomes: active, inactive

>>> df
                               smiles_entry     group
0                  Clc1ccccc1/C=N\Nc1ccccn1  inactive
1  CCn1cc(-c2[nH]c(=S)ncc2-c2ccc(Cl)cc2)c(-c2ccc(Br)cc2)n1  inactive
2  Oc1c(CNCCNCc2cc(Cl)cc(Cc3ccccc3)c2O)cc(Cl)cc1Cc1ccccc1    active
3  O=C(Nc1ccc(Cl)c(C(F)(F)F)c1)Nc1ccc(-c2cccnc2)cc1N1CCC(CO)CC1  inactive
4  NC(=O)c1cccc(-c2ccc(S(=O)(=O)Nc3ccc4c(c3)N(C(=O)C3CC3)CCC4)cc2)c1  inactive

###

tested on: SNB-75 CNS; test: NCI-60 one-dose screen, 48 h; details: 10 µM unless noted
About 83,000 compounds went through this panel and 20% of them were active in at least one assay; those are over-represented in the sample as a whole. Calls of active or inactive are those of the source. How the source made its calls: active means growth percent below 10; inactive means the rest.
Outcomes: active, inactive

Molecule	Experimental Target	Group
CC1Cc2c(ncnc2-n2cnc3ccccc32)N(C)c2ccccc21 (configuration not stated)	SNB-75 CNS	inactive
C[C@H]1[C@H](C)CC[C@]2(COC(=O)CCC(=O)O)CC[C@]3(C)C(=CC[C@@H]4[C@@]5(C)CCCNC(C)(C)[C@@H]5CC[C@]43C)[C@H]12	SNB-75 CNS	active
ClC1=C(Cl)C(Cl)=C(Cl)C1=Cc1ccccc1	SNB-75 CNS	active
N#C/C(=C(/O)CCCO)c1nc2ccccc2c(=O)[nH]1	SNB-75 CNS	inactive
O=C(NCCO)c1cccnc1	SNB-75 CNS	inactive
Cc1ccc(NC(=O)N[C@@H](Cc2cc(F)cc(F)c2)C(=O)N[C@@H]2C(=O)N3CCC[C@H]3C(=O)N3CCCC[C@H]3C(=O)N[C@@H](C)C(=O)N3C[C@H](C)C[C@H]3C(=O)O[C@H]2C)cc1	SNB-75 CNS	inactive
Cn1cc(-c2noc(C(=O)c3cn(C)c4ncc(Br)cc34)n2)c2ccccc21	SNB-75 CNS	inactive

###

Quick reference: growth of the listed items.
tested on: DU-145 prostate; assay: NCI-60 one-dose screen, 48 h (100 = growth as untreated, 0 = no growth, -100 = all killed); settings: 10 µM unless noted
Compounds without any hit were thinned out: in the full panel of roughly 83,000, 20% have a hit.
Measured Attribute: growth (%)

In [3]: df
Out[3]:
                                   molecule  experimental_target  recorded_value
0  CCn1cc(-c2cc(-c3ccc(Cl)cc3)nc(N)n2)c(-c2ccc(Br)cc2)n1      DU-145 prostate            99.4
1      CCCOc1ccc(-c2nc(-c3ccc(N)cc3)cs2)cc1      DU-145 prostate             133
2    Cc1cc[n+](CCCCCCCCCC[n+]2ccc(C)cc2)cc1      DU-145 prostate            93.7
3  O=C1NC(=O)C(Cc2ccc(OCc3ccc(-c4cc(F)c(F)c(F)c4)cc3)cc2)S1 (stereo not given)      DU-145 prostate            95.1
4  O=C(N=c1n(-c2ccccc2)nc2n1CCN2C1=NCCN1)c1ccc(Cl)cc1      DU-145 prostate            95.7

###

Quick reference: growth of the listed items.
system: NCI-H322M lung; assay: NCI-60 one-dose screen, 48 h (100 = growth as untreated, 0 = no growth, -100 = all killed); details: 10 µM unless noted
About 83,000 compounds went through this panel and 20% of them were active in at least one assay; those are over-represented in the sample as a whole. The source made the active and inactive calls. How the source made its calls: active means growth percent below 10; inactive means the rest.
Measured Attribute: growth

In [3]: df
Out[3]:
                                   molecule  experimental_target    recorded_value
0  CCCn1ccnc1C(O)c1ccc(OCc2ccccc2)c(OC)c1 (stereo not given)       NCI-H322M lung  90.1% (inactive)
1  O=C(O)c1cccc(CN2CCN(c3cc4c(cc3F)c(=O)c(C(=O)O)cn4C3CC3)CC2)c1O       NCI-H322M lung   111% (inactive)
2        Brc1ccc(-c2nnc3c4[nH]ccc4ncn23)cc1       NCI-H322M lung    91% (inactive)
3  CNC(=O)c1cc(Oc2cccc3nc(NC(=O)Nc4cc(C(F)(F)F)cc(C(F)(F)F)c4)ccc23)ccn1       NCI-H322M lung  25.5% (inactive)
4  COc1cc2c(=O)[nH]c3cc([N+](=O)[O-])ccc3c2cc1[N+](=O)[O-]       NCI-H322M lung  60.8% (inactive)

###

test system: KM12 colon; assay: NCI-60 one-dose screen, 48 h; conditions: 10 µM unless noted
This is part of a sample that, as a whole, favours compounds with a hit. Of some 83,000 tested, about 20% had one in any assay. The source made the active and inactive calls. Rule for the calls: active = growth percent below 10; inactive = the rest.
Outcomes: TRUE = active, FALSE = inactive

                                   compound  experimental_target  group
0  Nc1nc(Nc2ccccc2)c2ncn(Cc3cc4c(cc3Br)OCO4)c2n1           KM12 colon  FALSE
1  CC(C)(C)c1cc(C(=O)Nc2ccccc2C(=O)NCCN)cc(C(C)(C)C)c1           KM12 colon   TRUE
2  O=C(COc1cccc(/C=C2\Oc3ccccc3C2=O)c1)c1ccc([N+](=O)[O-])cc1           KM12 colon  FALSE
3                   Cc1nc(-c2ccccc2)sc1CC#N           KM12 colon  FALSE
4  CCCCCn1c(C)cc(/C=C\c2ccc3cc(C)ccc3[n+]2C)c1C           KM12 colon   TRUE
5  COc1cc2c(c(OC)c1OC)-c1ccc(NNC(N)=S)c(=O)cc1[C@@H](NC(C)=O)CC2           KM12 colon   TRUE
6  Nc1nc(Nc2ccccc2)c2ncn(Cc3ccc4c(c3)OCO4)c2n1           KM12 colon  FALSE
7  CCOC(=O)C1=C(C(=O)c2ccc(Br)cc2)C(c2ccc(Br)cc2)NC(=S)N1 (stereo not given)           KM12 colon  FALSE
8           NC1=NC(=O)NC1(c1ccccc1)c1ccccc1           KM12 colon  FALSE
9  CCN1c2ccccc2C(Cl)(c2ccc(N(C)C)cc2)c2ccccc21           KM12 colon  FALSE

###

system: IGROV1 ovarian; experiment: NCI-60 one-dose screen, 48 h; settings: 10 µM unless noted
Compounds without any hit were thinned out: in the full panel of roughly 83,000, 20% have a hit. Active and inactive are the calls of the source. How the source made its calls: active means growth percent below 10; inactive means the rest.
Outcomes: active, inactive

>>> df
                                    compound  experimental_target     group
 0               Cc1ccccc1OC(=O)c1cccc(Cl)c1       IGROV1 ovarian  inactive
 1  CC1(C)CC[C@]2(C(=O)O)CC[C@]3(C)C(=CC[C@@H]4[C@@]5(C)C/C(=C/c6cccnc6)[C@H](O)C(C)(C)[C@@H]5CC[C@]43C)[C@@H]2C1       IGROV1 ovarian    active
 2  CO[C@H]1CC[C@@]2(C)C(=CC[C@H]3[C@@H]4C[C@H](O)C[C@@]4(C)CC[C@@H]32)C1       IGROV1 ovarian  inactive
 3  CC(C)=CC/C=C(/C)[C@H]1CC[C@]2(C)[C@@H]1CC[C@@H]1[C@@]3(C)CCC(=O)NC(C)(C)[C@@H]3CC[C@]12C       IGROV1 ovarian    active
 4  O=C1/C(=C/c2ccc(OCc3ccccc3)cc2)Oc2cc(OCCN3CCCCC3)ccc21       IGROV1 ovarian  inactive
 5  COC(=O)[C@@H](NC(=O)NC(=O)NC(=O)CI)C(C)C       IGROV1 ovarian  inactive
 6  Cc1nc(Cl)c2c(n1)N(C)c1ccc(Cl)cc1C(C)C2 (stereo not drawn)       IGROV1 ovarian  inactive
 7       CCCCCCNC(=O)Nc1ncnc2c1ncn2-c1ccccc1       IGROV1 ovarian  inactive
 8  O=C1Cc2c(sc3c(F)cccc23)C(c2ccccc2[N+](=O)[O-])N1 (stereo not drawn)       IGROV1 ovarian  inactive
 9  COc1ccc2nc3cc(Cl)ccc3c(Nc3ccc(O)c(CN4CCCC4)c3)c2c1       IGROV1 ovarian    active
10  COc1ncc(-c2ccc3nccc(C#CCCCCC(=O)O)c3c2)cc1NS(=O)(=O)c1ccc(F)cc1F       IGROV1 ovarian    active
11  O=C(Nc1ccc(C(=O)/C=C/c2ccc(N3CCOCC3)cc2)cc1)Nc1ccc([N+](=O)[O-])cc1       IGROV1 ovarian  inactive
12  CN(C)CCCNc1nc(-c2cccc(C(Cl)(Cl)Cl)c2)nc(C(Cl)(Cl)Cl)n1       IGROV1 ovarian  inactive
13       O=C1NC(=O)C(Cc2ccccc2)(Cc2ccccc2)N1       IGROV1 ovarian  inactive
14  C[n+]1cccc(NC(=O)c2ccc3ccc4ccc(C(=O)Nc5ccc[n+](C)c5)nc4c3n2)c1       IGROV1 ovarian  inactive
15  CCN=Cc1c(O)c(O)c(C(C)C)c2cc(C)c(-c3c(C)cc4c(C(C)C)c(O)c(O)c(C=NCC)c4c3O)c(O)c12       IGROV1 ovarian  inactive
16  C=C(C)[C@@H]1CC[C@]2(C(=O)OC)CC[C@]3(C)[C@H](CC[C@@H]4[C@@](C)(CCc5nn[nH]n5)[C@H](C(=C)C)CC[C@]43C)[C@@H]12       IGROV1 ovarian    active
17  CCN(CC)c1ccc2cc(C(Nc3ccc(Cl)cc3)c3nnnn3C(C)(C)C)c(=O)oc2c1 (stereo not drawn)       IGROV1 ovarian  inactive
